Measured max response of individual entries
assay: qHTS assay for small molecule agonists of the antioxidant response element (ARE) signaling pathway measured by Nrf2-dependant transcriptional activity - cell viability counter screen (AID 720653); conditions: ARE-bla HepG2 viability, CellTiter-Glo ATP luminescence, 16 h; stronger effect = lower value; further: on the % scale 0 is the no-effect control and ±100 the full control effect
Inconclusive results are not listed.
Write the number in % without appending the unit.

1. O=[N+]([O-])c1ccc(Nc2ccccc2)cc1 ... -13.2
2. CCOC(=O)COc1cc(-c2nn(C)c(OC(F)F)c2Cl)c(F)cc1Cl ... 13.2
3. O=C(O)c1c(Cl)ccc2cc(Cl)cnc12 ... -9.56

Inquiry: Look up max response: CNC(=S)S
Reply text: -4.46

Inquiry: Next entry: COC(C)(C)CCC[C@H](C)C/C=C/C(C)=C/C(=O)OC(C)C
Reply text: -6.46

Inquiry: Next entry: CCOP(=O)(OCC)SCSCC
Reply text: 2.19

Inquiry: Next entry: CCCCCCCCCCCCC1=C(OC(C)=O)C(=O)c2ccccc2C1=O
Reply text: -15.3

Inquiry: Next entry: Brc1c(Br)c(Br)c(Br)c(Br)c1Br
Reply text: 3.38
